All values here come from PubChem BioAssay (NCI).

- Test system: A549 NSCLC
- assay_procedure: NCI tumour cell line growth inhibition, 48 h; in the data active = GI50 below about 0.43 µM; inactive = the rest
Lab note: assign the record to one of TRUE = active, FALSE = inactive

Just curious, what result did C[CH2][Sn]1([CH2]C)[O]C2C(O)OC(CO)C(O)C2[O]1 (stereo unspecified) get here?
FALSE

Just curious, what result did COC(=O)C1=C(C(=O)Nc2cccnc2)C2OC1(C(Cc1ccccc1)Oc1ccccc1)C1OC21 (stereo unspecified) get here?
FALSE

Just curious, what result did O=C(/C=C\c1cccc([N+](=O)[O-])c1)c1ccccc1 get here?
FALSE

Just curious, what result did Cc1ccccc1NC(=O)N/C(N)=N/c1nc2ccccc2s1 get here?
TRUE

Just curious, what result did Cc1nc(NC(=O)COc2cccc(/C=C3\COc4ccccc4C3=O)c2)sc1C get here?
FALSE

Just curious, what result did O=C(/C=C/c1ccccc1O)c1ccccc1 get here?
FALSE

###

Hi there, I'd appreciate the recorded TGI for every entry that follows.
- Tested on: SK-MEL-2 melanoma
- assay_procedure: NCI tumour cell line growth inhibition, 48 h

So what does the record say about TGI for CC1C(=O)CCC1C(Sc1ccccc1)(Sc1ccccc1)Sc1ccccc1 (stereo not given) ?
> 100 µM

So what does the record say about TGI for O=P(O)(O)OP(=O)(O)O ?
> 100 µM

So what does the record say about TGI for N#CC(NC12CC3CC(CC(C3)C1)C2)c1ccccc1 (stereo not given) ?
> 100 µM

So what does the record say about TGI for CCCCCCOC(=O)C(N)Cc1ccc(OC)cc1 (stereo not given) ?
> 100 µM

So what does the record say about TGI for C[C@@]12C[C@@H](c3ccccc3O1)N1CCSC1=N2 ?
> 100 µM

So what does the record say about TGI for O=C(O)C(F)(OC(F)(F)C(F)(F)C(F)(F)F)C(F)(F)F (stereo not given) ?
> 100 µM

So what does the record say about TGI for CCOC(=O)c1ccc(-c2cccs2)n1C ?
> 100 µM

So what does the record say about TGI for CC(=O)OCC1OC(O[C@@H]2C[C@H]3C(C)(C)[C@H](OC(C)=O)CC[C@]3(C)[C@H]3CC[C@@]45C[C@H](O)C[C@H](C)[C@@H]4CC=C5[C@@]32C)C(O)C(O)C1O (stereo not given in full) ?
5.93 µM

So what does the record say about TGI for CCC[CH2][Sn]([CH2]CCC)([O]C(=O)c1cc(OC)c(OC)c(OC)c1)[O]C(=O)c1cc(OC)c(OC)c(OC)c1 ?
2.31 µM

So what does the record say about TGI for Nc1ccccc1C#Cc1ccccc1C#Cc1ccccc1N ?
30.2 µM

###

Hi there, I'd appreciate the recorded TGI for every entry that follows.
- Test system: HOP-92 NSCLC
- assay_procedure: NCI tumour cell line growth inhibition, 48 h

So what does the record say about TGI for CN(C)c1cc2c(cc1Sc1nc3c(N)nccc3n1CCNCC(C)(C)C)OCO2 ?
2.49 µM

So what does the record say about TGI for CCOC(=O)CSc1[nH]c2nc(C)nc(Cl)c2c1C#N ?
> 10 µM

So what does the record say about TGI for CCOC(=O)c1c(N2CCOCC2)[nH]c(=O)c(C(c2c(O)c(C(=O)OCC)c(N3CCOCC3)[nH]c2=O)C(C)C)c1O ?
> 100 µM

So what does the record say about TGI for O=CC(O)C(O)C(O)COc1cc(CO)cc2c1C(=O)c1ccccc1C2=O (stereo not given) ?
> 100 µM

So what does the record say about TGI for C[C@@]12C[C@@H](c3ccccc3O1)N1CCSC1=N2 ?
> 100 µM

So what does the record say about TGI for O=c1oc2c(ccc3occc32)c(N2CCCCC2)c1-c1ccccc1 ?
> 100 µM

So what does the record say about TGI for Cn1ccnc1SC(F)(F)c1nc2ccccc2o1 ?
> 100 µM

So what does the record say about TGI for CCOC(=O)CCC(NC(=O)N1CCN(c2c(C)nc(C)[nH]c2=O)CC1)C(=O)OCC (stereo not given) ?
> 100 µM

So what does the record say about TGI for O=[N+]([O-])c1nccn1CCCN=c1c2ccccc2n(O)c2ccccc12 ?
> 100 µM

So what does the record say about TGI for Brc1ccc(-c2ccc(-c3ccc(-c4ccc(Br)s4)s3)s2)s1 ?
> 100 µM
